The measured values listed here are drawn from ChEMBL document CHEMBL1159313.

Test: Cytotoxicity against human drug-sensitive […] cells after 48 hrs by microplate assay
Type: functional, cell-based
Each record here notes measured IC50.
Supply the numeric figure in µg/mL, leaving out any unit text.

- Molecule: "C=CC(=C)CC[C@]1(C)[C@H]2C[C@@H](OC(=O)C(C)CC)C=C3[C@H](OC(C)=O)O[C@H](OC(C)=O)[C@@]32[C@H](OC)C[C@@H]1C (relative stereo) [CASEARLUCIN E]"
  IC50 (µg/mL): 3
- Molecule: "C=C/C(C)=C/C[C@]1(C)[C@H]2C[C@H](OC(=O)C(C)CC)C=C3[C@H](OC(C)=O)O[C@H](OC(C)=O)[C@@]32[C@H](O)C[C@@H]1C (relative stereo) [CASEARLUCIN A]"
  IC50 (µg/mL): 1
- Molecule: "C=CC(=C)CC[C@]1(C)[C@H]2C[C@H](OC(=O)C(C)CC)C=C3[C@H](OC(C)=O)O[C@H](OC(C)=O)[C@@]32[C@H](OC)C[C@@H]1C (relative stereo)"
  IC50 (µg/mL): 1.4

Record request: IC50 value, item C=CC(=C)CC[C@]1(C)[C@H]2C[C@H](OC(=O)C(C)CC)C=C3[C@H](OC(C)=O)O[C@H](OC(C)=O)[C@@]32[C@H](O)C[C@@H]1C (relative stereo) 1.2

Thanks! And C=CC(=C)CC[C@]1(C)[C@H]2C[C@H](OC(=O)C(C)CC)C=C3[C@H](OC(C)=O)O[C@H](OC(C)=O)[C@@]32[C@H](OC(C)=O)C[C@@H]1C (relative stereo) [CASEARLUCIN D] ? 9.4

Thanks! And C=C/C(C)=C/C[C@]1(C)[C@H]2C[C@H](OC(=O)C(C)CC)C=C3[C@H](OC(C)=O)O[C@H](OC(C)=O)[C@@]32[C@H](OC(C)=O)C[C@@H]1C (relative stereo) [CASEARLUCIN C] ? 7.7

###

Each record here notes measured IC50.
Tested on: HCT-116
Assay: Cytotoxicity against human HCT116 cells after 48 hrs by microplate assay
Assay type: functional, cell-based
Conditions: HCT-116, 48 h

- Molecule: "C=CC(=C)CC[C@]1(C)[C@H]2C[C@H](OC(=O)C(C)CC)C=C3[C@H](OC(C)=O)O[C@H](OC(C)=O)[C@@]32[C@H](O)C[C@@H]1C (relative stereo)"
  Endpoint Value: "1.6 µg/mL"

Record request: IC50 value, item C=CC(=C)CC[C@]1(C)[C@H]2C[C@H](OC(=O)C(C)CC)C=C3[C@H](OC(C)=O)O[C@H](OC(C)=O)[C@@]32[C@H](OC)C[C@@H]1C (relative stereo) 1 µg/mL

Thanks! And C=C/C(C)=C/C[C@]1(C)[C@H]2C[C@H](OC(=O)C(C)CC)C=C3[C@H](OC(C)=O)O[C@H](OC(C)=O)[C@@]32[C@H](OC(C)=O)C[C@@H]1C (relative stereo) ? 4.5 µg/mL

Thanks! And C=C/C(C)=C/C[C@]1(C)[C@H]2C[C@H](OC(=O)C(C)CC)C=C3[C@H](OC(C)=O)O[C@H](OC(C)=O)[C@@]32[C@H](O)C[C@@H]1C (relative stereo) ? 1.3 µg/mL

Thanks! And C=CC(=C)CC[C@]1(C)[C@H]2C[C@H](OC(=O)C(C)CC)C=C3[C@H](OC(C)=O)O[C@H](OC(C)=O)[C@@]32[C@H](OC(C)=O)C[C@@H]1C (relative stereo) ? 4.7 µg/mL

Thanks! And C=CC(=C)CC[C@]1(C)[C@H]2C[C@@H](OC(=O)C(C)CC)C=C3[C@H](OC(C)=O)O[C@H](OC(C)=O)[C@@]32[C@H](OC)C[C@@H]1C (relative stereo) ? 1.8 µg/mL
